Biological target: T1, human transferrin receptor (hTfR) (human, UniProt P02786 89-760)
T1 construct: also called human TfR; TfR1
T1 sequence (P02786 89-760 limits assumed): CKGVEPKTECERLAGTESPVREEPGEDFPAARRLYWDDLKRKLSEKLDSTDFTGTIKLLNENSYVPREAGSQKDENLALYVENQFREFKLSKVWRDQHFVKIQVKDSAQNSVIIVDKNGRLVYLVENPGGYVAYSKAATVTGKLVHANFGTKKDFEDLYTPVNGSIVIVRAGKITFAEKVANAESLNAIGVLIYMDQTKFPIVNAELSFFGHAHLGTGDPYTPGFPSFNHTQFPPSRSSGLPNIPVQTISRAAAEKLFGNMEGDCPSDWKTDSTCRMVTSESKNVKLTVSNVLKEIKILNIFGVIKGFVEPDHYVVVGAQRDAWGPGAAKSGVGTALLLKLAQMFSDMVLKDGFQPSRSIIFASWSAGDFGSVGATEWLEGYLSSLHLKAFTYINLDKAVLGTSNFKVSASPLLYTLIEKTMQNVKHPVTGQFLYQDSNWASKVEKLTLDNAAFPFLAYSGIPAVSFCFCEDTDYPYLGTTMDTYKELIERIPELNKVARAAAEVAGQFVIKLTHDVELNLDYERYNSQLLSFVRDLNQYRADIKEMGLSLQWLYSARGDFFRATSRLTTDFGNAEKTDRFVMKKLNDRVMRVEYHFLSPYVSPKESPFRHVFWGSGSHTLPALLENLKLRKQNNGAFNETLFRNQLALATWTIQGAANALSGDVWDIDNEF
Assay: SPR, Biacore T200, hTfR immobilised on NTA chip, pH 6.0
quantityName: pKd
To interpret pKd, take it as minus log10 of a concentration measured in moles per litre.

binder="AVXVXNYYIIKRYXC (not fully specified; MeF at 3; MeW at 5; MeF4COO at 14; cyclic: chloroacetylated N-terminal Ala 1 joined to Cys 15; linker PEG4c on C-terminus, As printed: A-V-MeF-V-MeW-N-Y-Y-I-I-K-R-Y-MeF4COO-C, linker PEG4c) [894_0592 (SEQ ID No. 118)]" recordedvalue=8.37

Continue with the next binder.
Prompt line: Which pKd is reported for this binder? AVXVXNYYXIKRYXC (not fully specified; MeF at 3; MeW at 5; Eva at 9; MeY at 14; cyclic: chloroacetylated N-terminal Ala 1 joined to Cys 15; linker PEG4c on C-terminus, As printed: A-V-MeF-V-MeW-N-Y-Y-Eva-I-K-R-Y-MeY-C, linker PEG4c) [894_0591 (SEQ ID No. 117)]
Response line: 7.86
